target: His-AKT (Full Length) (Homo sapiens (Human), UniProt P31749); test: AKT/PKB kinase assay; assay type: biochemical; details: 160 μM ATP, 90 min at 25° C., Caliper mobility shift
Sequence (P31749 whole entry): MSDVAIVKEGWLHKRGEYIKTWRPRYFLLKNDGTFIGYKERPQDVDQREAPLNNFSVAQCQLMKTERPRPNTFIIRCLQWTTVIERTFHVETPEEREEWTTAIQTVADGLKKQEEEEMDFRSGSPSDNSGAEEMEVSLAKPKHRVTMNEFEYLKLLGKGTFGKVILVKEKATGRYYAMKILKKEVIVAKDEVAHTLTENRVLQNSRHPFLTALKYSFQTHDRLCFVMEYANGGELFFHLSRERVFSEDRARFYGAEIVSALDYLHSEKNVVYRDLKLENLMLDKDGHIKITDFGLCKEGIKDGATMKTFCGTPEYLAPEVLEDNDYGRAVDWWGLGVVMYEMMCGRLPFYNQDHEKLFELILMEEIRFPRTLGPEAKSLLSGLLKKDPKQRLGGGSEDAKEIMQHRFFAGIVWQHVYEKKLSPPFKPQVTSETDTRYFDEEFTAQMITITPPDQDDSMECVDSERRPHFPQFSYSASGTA
# Lookup of reported IC50 keyed by entry

NC(=O)c1cccc2c(NCc3ccc(C(F)(F)F)cc3)nnnc12 ... > 1000 nM

stdin: Give the value of IC50 reported for the following: "CNC[C@@H](Nc1ncnc2c(C(N)=O)ccnc12)c1ccc(F)c(C(F)(F)F)c1"
stdout: < 25 nM

stdin: Give the value of IC50 reported for the following: "NC(=O)c1cccc2c(NCc3ccccn3)nnnc12"
stdout: > 1000 nM

stdin: Give the value of IC50 reported for the following: "CNC[C@@H](Nc1ncnc2c(C(N)=O)ccnc12)c1ccc(Cl)c(Cl)c1"
stdout: < 25 nM

stdin: Give the value of IC50 reported for the following: "NC(=O)c1cccc2c(N[C@H](CN3CCC3)c3ccc(Cl)c(C(F)(F)F)c3)nnnc12"
stdout: < 25 nM

* * *

molecular target: His-AKT (Full Length) (Homo sapiens (Human)); assay: AKT/PKB kinase assay; format: biochemical; details: 160 μM ATP, 90 min at 25° C., Caliper mobility shift
pIC50: −log10 of the molar value.
Quantity Kind: pIC50

CN(C)C[C@@H](Nc1ncnc2c(C(N)=O)ccnc12)c1ccc(F)c(C(F)(F)F)c1 ... 7.00 to 7.60
CNC[C@@H](Nc1ncnc2c(C(N)=O)ccnc12)c1ccc(F)c(Br)c1 ... > 7.60

The record that follows has no pIC50 shown yet.
stdin: Give the value of pIC50 reported for the following: "CNC[C@@H](Nc1ncnc2c(C(N)=O)ccnc12)c1cc(F)cc(C(F)(F)F)c1"
stdout: 7.00 to 7.60

* * *

target: p70S6K (T412E mutant) (Homo sapiens (Human), UniProt P23443, T412E); assay: p70S6K enzyme assay; type: biochemical; conditions: value printed in the synthesis paragraph
Sequence (P23443 whole entry T412E): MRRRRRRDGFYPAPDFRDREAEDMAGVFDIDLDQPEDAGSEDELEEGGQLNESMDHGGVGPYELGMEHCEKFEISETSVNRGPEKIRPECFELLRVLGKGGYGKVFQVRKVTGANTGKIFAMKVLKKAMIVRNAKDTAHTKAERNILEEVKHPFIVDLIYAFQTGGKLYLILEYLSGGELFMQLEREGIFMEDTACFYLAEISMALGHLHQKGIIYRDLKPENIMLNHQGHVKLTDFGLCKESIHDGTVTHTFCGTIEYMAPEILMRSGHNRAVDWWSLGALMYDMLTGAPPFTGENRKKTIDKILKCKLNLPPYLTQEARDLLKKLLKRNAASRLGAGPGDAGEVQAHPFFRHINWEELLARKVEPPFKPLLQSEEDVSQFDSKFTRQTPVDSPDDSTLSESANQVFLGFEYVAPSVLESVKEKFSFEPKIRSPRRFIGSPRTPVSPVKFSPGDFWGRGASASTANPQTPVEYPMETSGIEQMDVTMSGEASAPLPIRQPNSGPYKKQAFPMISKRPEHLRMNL
Quantity Kind: IC50 (nM)
Field: numeric (nM). Do not append units.

stdin: Check p70S6K (T412E mutant) (Homo sapiens (Human), UniProt P23443, T412E) data and give IC50 for "NC(=O)c1ccnc2c(N[C@H](CN3CCC3)c3ccc(Cl)c(C(F)(F)F)c3)ncnc12" .
stdout: 1.6

* * *

Molecular target: p70S6K (T412E mutant) (Homo sapiens (Human), UniProt P23443, T412E)
Test: p70S6K enzyme assay
Assay type: biochemical
Details: 24 μM ATP, 90 min at 25° C., Caliper mobility shift
Protocol: p70S6K inhibitor compounds were diluted and plated in 96 well plates. […] The proportion of substrate and product (phosphorylated) peptide was analyzed on a Caliper Life Sciences Lab Chip 3000, using a pressure of −1.4 psi, and upstream and downstream voltages of −3000 and −700, respectively. […] To assess the inhibitory potential of the compounds, IC50 values were determined, as shown above.
pIC50: −log10 of the molar value.
# Lookup of reported pIC50 keyed by entry

Here is how some molecules turned out for pIC50.
CC(C)c1ccc([C@@H](CN2CCC2)Nc2ncnc3c(C(N)=O)ccnc23)cc1 ... > 7.60
CCNC[C@@H](Nc1ncnc2c(C(N)=O)ccnc12)c1cc(F)c(OC)cc1F ... 7.00 to 7.60
NC(=O)c1cccc2c(NCc3ccccc3)nnnc12 ... 6.00 to 6.30
NC(=O)c1cccc2c(NCc3ccc(Cl)c(Cl)c3)nnnc12 ... > 7.60
CC(C)NC[C@@H](Nc1ncnc2c(C(N)=O)ccnc12)c1ccc(Cl)c(C(F)(F)F)c1 ... 6.30 to 7.00
CNC[C@@H](Nc1ncnc2c(C(N)=O)ccnc12)c1cccc(F)c1 ... > 7.60

stdin: Give the value of pIC50 reported for the following: "CN(C)C[C@@H](Nc1ncnc2c(C(N)=O)ccnc12)c1ccc(F)c(C(F)(F)F)c1"
stdout: > 7.60

stdin: Give the value of pIC50 reported for the following: "CCNC[C@@H](Nc1ncnc2c(C(N)=O)ccnc12)c1cc(F)c(F)cc1F"
stdout: 7.00 to 7.60

stdin: Give the value of pIC50 reported for the following: "NC(=O)c1cncc2c(N[C@H](CN3CCC3)c3ccc(Cl)c(C(F)(F)F)c3)ncnc12"
stdout: > 7.60

stdin: Give the value of pIC50 reported for the following: "CNC[C@@H](Nc1ncnc2c(C(N)=O)ccnc12)c1ccc(Cl)c(C)c1"
stdout: > 7.60

stdin: Give the value of pIC50 reported for the following: "CNC[C@@H](Nc1ncnc2c(C(N)=O)ccnc12)c1ccc(F)c(C(F)(F)F)c1"
stdout: > 7.60

stdin: Give the value of pIC50 reported for the following: "NC(=O)c1cccc2c(NCc3cccnc3)nnnc12"
stdout: < 6.00

stdin: Give the value of pIC50 reported for the following: "CNC[C@@H](Nc1ncnc2c(C(N)=O)ccnc12)c1ccc(F)c(C(F)F)c1"
stdout: > 7.60

stdin: Give the value of pIC50 reported for the following: "CN(C)C[C@@H](Nc1nnnc2c(C(N)=O)cccc12)c1ccc(Cl)c(C(F)(F)F)c1"
stdout: > 7.60

stdin: Give the value of pIC50 reported for the following: "NC(=O)c1ccnc2c(N[C@@H](CN3CCC3)c3ccc(Cl)c(C(F)(F)F)c3)ncnc12"
stdout: 6.00 to 6.30

stdin: Give the value of pIC50 reported for the following: NC(=O)c1cccc2c(NC3CNCCC3c3cccc(C(F)(F)F)c3)nnnc12 (centres unmarked)
stdout: > 7.60

stdin: Give the value of pIC50 reported for the following: "NC(=O)c1ccnc2c(N[C@H](CN3CCC3)c3ccc(C(F)(F)F)c(C(F)(F)F)c3)ncnc12"
stdout: > 7.60
